Quick reference: Growth Inhibition of the listed items.
# Tested on: Escherichia coli
# method-notes: Ability to inhibit growth of Escherichia coli MTCC 42 was determined
# Format: functional
Express the result in mm but write the number alone.

COc1ccc(-c2nc(N3CCCCC3)nc3ccc(C)cc23)cc1
19
Cc1ccc2nc(N3CCOCC3)nc(-c3ccc(N(C)C)cc3)c2c1
20
O=C(O)c1cn(C2CC2)c2cc(N3CCNCC3)c(F)cc2c1=O [CIPROFLOXACIN]
22
Cc1ccc2nc(N3CCOCC3)nc(-c3ccccc3)c2c1
21
Cc1ccc2nc(-c3ccccc3)nc(-c3ccc(N(C)C)cc3)c2c1
18

Consider the record given below.
In: Could you please provide reported Growth Inhibition for `COc1ccc(-c2nc(-c3ccccc3)nc3ccc(C)cc23)cc1` ? Thanks!
Out: 16

* * *

# Tested on: Enterococcus faecalis
# method-notes: Ability to inhibit growth of Enterococcus faecalis MTCC 439 was determined
# Format: functional
assay-endpoint: Growth Inhibition (mm)
API: value field is a number in mm; no unit string.

O=C(O)c1cn(C2CC2)c2cc(N3CCNCC3)c(F)cc2c1=O
16
COc1ccc(-c2nc(-c3ccccc3)nc3ccc(C)cc23)cc1
12
COc1ccc(-c2nc(N3CCCCC3)nc3ccc(C)cc23)cc1
16
Cc1ccc2nc(N3CCOCC3)nc(-c3ccccc3)c2c1
16
Cc1ccc2nc(N3CCOCC3)nc(-c3ccc(N(C)C)cc3)c2c1
17

Let us examine a further case.
In: For the molecule `Cc1ccc2nc(-c3ccccc3)nc(-c3ccc(N(C)C)cc3)c2c1` , give its measured Growth Inhibition value.
Out: 12

* * *

# Test system: Klebsiella pneumoniae
# method-notes: Ability to inhibit growth of Klebsiella pneumoniae MTCC 109 was determined
# Assay type: functional
Measured Growth Inhibition, listed per entry for reference.
The response must be a number in mm with no trailing unit.

See these solved cases before continuing.
Cc1ccc2nc(-c3ccccc3)nc(-c3ccc(N(C)C)cc3)c2c1
19
COc1ccc(-c2nc(N3CCCCC3)nc3ccc(C)cc23)cc1
20
Cc1ccc2nc(N3CCOCC3)nc(-c3ccccc3)c2c1
19

In: Name the recorded Growth Inhibition of the item `Cc1ccc2nc(N3CCOCC3)nc(-c3ccc(N(C)C)cc3)c2c1` in your answer.
Out: 20

In: Quick one: give measured Growth Inhibition for `COc1ccc(-c2nc(-c3ccccc3)nc3ccc(C)cc23)cc1`
Out: 17

In: // fetch Growth Inhibition given entry `O=C(O)c1cn(C2CC2)c2cc(N3CCNCC3)c(F)cc2c1=O`
Out: 18

* * *

# Test system: Proteus vulgaris
# method-notes: Ability to inhibit growth of Proteus vulgaris MTCC744 was determined
# Assay type: functional
Readings of Growth Inhibition for the listed compounds
Hi, when you answer, please include the unit after the number. Thanks!

// solved cases for Growth Inhibition follow
O=C(O)c1cn(C2CC2)c2cc(N3CCNCC3)c(F)cc2c1=O
19 mm
Cc1ccc2nc(N3CCOCC3)nc(-c3ccccc3)c2c1
18 mm
COc1ccc(-c2nc(N3CCCCC3)nc3ccc(C)cc23)cc1
18 mm
Cc1ccc2nc(-c3ccccc3)nc(-c3ccc(N(C)C)cc3)c2c1
17 mm
Cc1ccc2nc(N3CCOCC3)nc(-c3ccc(N(C)C)cc3)c2c1
18 mm

Kindly consider the entry below.
In: Supply Growth Inhibition value. Item: `COc1ccc(-c2nc(-c3ccccc3)nc3ccc(C)cc23)cc1`
Out: 15 mm

Data provenance: ChEMBL document CHEMBL1137910
